Source of measurements: patent US20240174690A1

TARGET_UNDER_TEST: KRAS (G12C)::SOS1 (Homo sapiens (Human), UniProt P01116, C118S/C51S/C80L/G12C)
Sequence (P01116 other isoform, or with tags, fused parts or gaps G12C/C51S/C80L/C118S): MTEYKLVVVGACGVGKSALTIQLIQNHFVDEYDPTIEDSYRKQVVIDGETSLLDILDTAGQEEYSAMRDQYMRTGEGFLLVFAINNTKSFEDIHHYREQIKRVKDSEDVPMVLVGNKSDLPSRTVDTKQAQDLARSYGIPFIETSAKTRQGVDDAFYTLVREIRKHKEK
PROTOCOL_SUMMARY: KRAS::SOS1 AlphaScreen binding assay, KRAS G12C
# IC50 per record follows

>  <COMPOUND>
CN[C@H]1CCN(c2cc(O[C@@H](C)[C@@H]3CCCN3C)nc(-c3noc4c3CCC[C@@]43CCCc4sc(N)c(C#N)c43)n2)C1 [II-35]

>  <IC50>
7 nM

$$$$
>  <COMPOUND>
C[C@H](Oc1cc(-n2ccc(C(N)=O)n2)nc(-c2noc3c2CCC[C@@]32CCCc3sc(N)c(C#N)c32)n1)[C@@H]1CCCN1C [II-21]

>  <IC50>
2 nM

$$$$
>  <COMPOUND>
C[C@H](Oc1nc(-c2noc3c2CCC[C@@]32CCCc3sc(N)c(C#N)c32)nc(N2CCN(C)C3(CC3)C2)c1Cl)[C@@H]1C[C@@H](F)CN1C [II-176]

>  <IC50>
15 nM

$$$$

====

Tested on: GP2D cells
PROTOCOL_SUMMARY: GP2D proliferation assay (120 h) (colorectal cancer, G12D)
Type: cell-based
# IC50 listing for each entry below

>  <COMPOUND>
C[C@H](Oc1cc(-c2ccn(C)n2)nc(-c2noc3c2CCC[C@@]32CCCc3sc(N)c(C#N)c32)n1)[C@@H]1C[C@@H](F)CN1C [II-27]

>  <IC50 [nM]>
408

$$$$
>  <COMPOUND>
C[C@@H]1CN(c2cc(O[C@@H](C)[C@@H]3C[C@@H](F)CN3C)nc(-c3noc4c3CCC[C@@]43CCCc4sc(N)c(C#N)c43)n2)CC2(CC2)N1 [II-17]

>  <IC50 [nM]>
6

$$$$
>  <COMPOUND>
C[C@H](Oc1cc(N2CC[C@H](N(C)C)C2)nc(-c2noc3c2CCC[C@@]32CCCc3sc(N)c(C#N)c32)n1)[C@@H]1CCCN1C [II-49]

>  <IC50 [nM]>
6

$$$$

====

Measured IC50, listed per entry.
Test system: NCI-H358 cells
PROTOCOL_SUMMARY: NCI-H358 CTG proliferation assay (120 h) (NSCLC, G12C)
Format: cell-based, human
TEST_SETTINGS: Homo sapiens, assay 1, CTG, read-out: H358 (assay 1) IC50
Experimental: NCI-H358 CTG Proliferation Assay (120 h) (NSCLC, G12C) NCI-H358 cells (ATCC No. CRL-5807) are dispensed into white bottom opaque 96 well plates (Perkin Elmer cat no. 5680) at a density of 2000 cells per well in 100 μL RPMI-1640 ATCC-Formulation (Gibco #A10491)+10% FCS (fetal calf serum) (assay 1) or into black 384-well plates, flat and clear bottom (Greiner, PNr. 781091) at a density of 200 cells per well in 60 μl RPMI-1640 ATCC-Formulation (Gibco #A10491)+10% FCS (fetal calf serum) (assay 2). […]
OBSERVABLE: IC50 (nM)

>  <COMPOUND>
C[C@H](Oc1cc(N2C[C@H](C)N[C@@H](C)C2)nc(-c2noc3c2CCC[C@@]32CCCc3sc(N)c(C#N)c32)n1)[C@@H]1CCCN1C [II-56]

>  <OBSERVABLE>
IC50

>  <MEASURED_NUMBER>
587

$$$$
>  <COMPOUND>
C[C@H](Oc1cc(N2C[C@H](C)N[C@@H](C)C2)nc(-c2onc3c2CCC[C@@]32CCCc3sc(N)c(C#N)c32)n1)[C@@H]1CCCN1C [I-6]

>  <OBSERVABLE>
IC50

>  <MEASURED_NUMBER>
809

$$$$
>  <COMPOUND>
C[C@H](Oc1cc([C@@H]2CCOC2)nc(-c2onc3c2CCC[C@@]32CCCc3sc(N)c(C#N)c32)n1)[C@@H]1CCCN1C [I-22]

>  <OBSERVABLE>
IC50

>  <MEASURED_NUMBER>
31

$$$$
>  <COMPOUND>
C[C@H](Oc1cc(N2CCOC2=O)nc(-c2noc3c2CCC[C@@]32CCCc3sc(N)c(C#N)c32)n1)[C@@H]1CCCN1C [II-143]

>  <OBSERVABLE>
IC50

>  <MEASURED_NUMBER>
25

$$$$
>  <COMPOUND>
C[C@H](Oc1cc([C@@H]2CCOC2)nc(-c2noc3c2CCC[C@@]32CCCc3sc(N)c(C#N)c32)n1)[C@@H]1CCCN1C [II-94]

>  <OBSERVABLE>
IC50

>  <MEASURED_NUMBER>
20

$$$$
>  <COMPOUND>
C[C@H](Oc1cc(N2CCOC3(COC3)C2)nc(-c2noc3c2CCC[C@@]32CCCc3sc(N)c(C#N)c32)n1)[C@@H]1CCCN1C [II-77]

>  <OBSERVABLE>
IC50

>  <MEASURED_NUMBER>
51

$$$$
